# System Name: T1, recombinant extracellular domain of hASIC1a (hASIC1a-ECD) (Homo sapiens, UniProt P78348)
# T1 construct: recombinant extracellular domain of hASIC1a(hASIC1a-ECD)
# T1 sequence (P78348 67-427 limits assumed): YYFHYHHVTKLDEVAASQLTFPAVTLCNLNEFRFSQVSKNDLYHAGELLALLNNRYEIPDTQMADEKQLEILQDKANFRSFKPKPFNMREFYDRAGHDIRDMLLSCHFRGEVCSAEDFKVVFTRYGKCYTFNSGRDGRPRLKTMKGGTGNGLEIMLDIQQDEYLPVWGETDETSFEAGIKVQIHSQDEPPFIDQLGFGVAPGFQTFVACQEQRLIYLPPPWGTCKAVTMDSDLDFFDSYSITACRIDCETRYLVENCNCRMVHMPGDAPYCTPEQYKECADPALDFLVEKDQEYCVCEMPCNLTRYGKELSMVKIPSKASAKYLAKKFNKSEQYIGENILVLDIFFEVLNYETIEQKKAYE
# Experimental Details: Biacore T200 binding affinity measurement
# Condition Context: Biacore T200, hASIC1a immobilized, antibody as analyte

{"columns": ["Molecule", "Ka / M⁻¹ s⁻¹"],
 "data": [
  ["ASC06-04-IgG1: affinity-matured ASC06 derivative, VH-CDR3 DSFYGRAKGV (SEQ ID NO: 17) (antibody, V domains shown) VH: QVQLQQSGGGLVQPGGSLRLSCAASGFTFSSYAMSWVRQAPGKGLEWVSAISGSGGSTYYADSVKGRFTISRDNSKNTLYLQMNSLRAEDTAVYYCAKDSFYGRAKGVWGQGTLVTVSS VL: QSALTQPASVSGSPGQSITISCTGTSSDVGAYNYVSWYQQQPGKAPKLMIYGVSNRPSGVSNRFSGSKSGNAASLTISGLQAEDEADYYCSSYTSSSTYVFGTGTKLTVLG", 620000],
  ["ASC06-03-IgG1: affinity-matured ASC06 derivative, VH-CDR3 DSFYGRAKGS (SEQ ID NO: 15) (antibody, V domains shown) VH: QVQLQQSGGGLVQPGGSLRLSCAASGFTFSSYAMSWVRQAPGKGLEWVSAISGSGGSTYYADSVKGRFTISRDNSKNTLYLQMNSLRAEDTAVYYCAKDSFYGRAKGSWGQGTLVTVSS VL: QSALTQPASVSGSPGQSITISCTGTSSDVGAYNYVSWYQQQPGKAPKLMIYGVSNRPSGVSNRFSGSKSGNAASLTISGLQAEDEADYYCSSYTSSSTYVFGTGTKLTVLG", 680000],
  ["ASC06-02-IgG1: affinity-matured ASC06 derivative, VH-CDR3 DSFFGRAKGS (SEQ ID NO: 13) (antibody, V domains shown) VH: QVQLQQSGGGLVQPGGSLRLSCAASGFTFSSYAMSWVRQAPGKGLEWVSAISGSGGSTYYADSVKGRFTISRDNSKNTLYLQMNSLRAEDTAVYYCAKDSFFGRAKGSWGQGTLVTVSS VL: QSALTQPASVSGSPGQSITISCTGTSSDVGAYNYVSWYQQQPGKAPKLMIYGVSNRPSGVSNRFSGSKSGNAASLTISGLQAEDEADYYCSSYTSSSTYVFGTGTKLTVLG", "1.3e+07"]
]}
